Parameter: binding signal. Scope: all listed entries.
SYSTEM NAME: ZFPm1 six-finger zinc finger protein (Sp1C framework) (artificial)
Sequence (chain, as listed by the source): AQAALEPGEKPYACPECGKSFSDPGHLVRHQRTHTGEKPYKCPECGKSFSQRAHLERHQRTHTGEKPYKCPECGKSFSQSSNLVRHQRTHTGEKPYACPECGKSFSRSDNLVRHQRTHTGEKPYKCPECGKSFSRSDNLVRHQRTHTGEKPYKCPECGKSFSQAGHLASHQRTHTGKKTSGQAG
PROTOCOL DETAILS: ELISA, 31.0 ug/ml protein, non-target
TEST SETTINGS: tags: MBP fusion (pMAL-C2), E. coli; label: 5'-biotin; hairpin
All answers are understood in fold over no oligo, so give the number only.

# example entries with known answers
> print(dat)
                                     binder          metric  reported
1  GGGGCCCCGCCTCCGCCGGCGGGTTTTCCCGCCGGCGGAGGCGGGGCCCC (dsDNA) [hHD-I]  binding signal         5
2  GGACCCACCGCGTCCCCTCCGGGTTTTCCCGGAGGGGACGCGGTGGGTCC (dsDNA) [B3c2]  binding signal         4
3  GGTTCTACCCCTCCCACCGCGGGTTTTCCCGCGGTGGGAGGGGTAGAACC (dsDNA) [NRI-1]  binding signal         5
4  GGCTCTGCTCATCCCACTACGGGTTTTCCCGTAGTGGGATGAGCAGAGCC (dsDNA) [c5p3-g]  binding signal         3
5  GGGACACCCCCAACCCCGCCGGGTTTTCCCGGCGGGGTTGGGGGTGTCCC (dsDNA) [c5c1-g]  binding signal         7
6  GGGGCAGCCCCCACGGCGCCGGGTTTTCCCGGCGCCGTGGGGGCTGCCCC (dsDNA) [hHD-II]  binding signal         4
7  GGTGCGGCGACTGCAGCAGCGGGTTTTCCCGCTGCTGCAGTCGCCGCACC (dsDNA) [NRI-2]  binding signal         4

Proceed to the following item.
The binder identified as GGCACTGCGGCTCCGGCCCCGGGTTTTCCCGGGGCCGGAGCCGCAGTGCC (dsDNA) [e2c-g] registered its binding signal at 2
